Kindly find below IC50 information for Tyrosine-protein kinase JAK3 (Homo sapiens) taken from the literature.

Example entries and their recorded answers appear below.
structure.string	target.desc	recorded.metric	experimental.result
C=CC(=O)Nc1cccc(Oc2c(Cl)cnc3[nH]c(-c4ccc(CN5CCN(C)CC5)cc4)nc23)c1	Tyrosine-protein kinase JAK3 (Homo sapiens)	IC50	≤ 50 nM
CCC(CC)n1cc(-c2nc(-c3cnn(C[C@@H]4CCCN4)c3)cn3nccc23)cn1	Tyrosine-protein kinase JAK3 (Homo sapiens)	IC50	1000 to 10000 nM
Cc1nccc(-c2cnc3[nH]ccc3c2N[C@H]2C[C@@H](NS(=O)(=O)c3cc(C#N)ccn3)C2)n1	Tyrosine-protein kinase JAK3 (Homo sapiens)	IC50	10 to 100 nM

Request - read-out IC50 | tested on Tyrosine-protein kinase JAK3 (Homo sapiens) | compound "C=CC(=O)N1CC[C@@H](Nc2nc(Nc3cnn(CCOC)c3)nc3ccsc23)C1"
≤ 10 nM

Request - read-out IC50 | tested on Tyrosine-protein kinase JAK3 (Homo sapiens) | compound "Fc1ccc2ncn(-c3ncc4nc(-c5cccc(Br)c5)n(C5CCOCC5)c4n3)c2c1"
> 1000 nM

Request - read-out IC50 | tested on Tyrosine-protein kinase JAK3 (Homo sapiens) | compound "C[C@@H]1CC[C@@H]1n1cc(-c2nc(-c3cnn(C[C@@H](O)CO)c3)cn3nccc23)cn1"
1000 to 10000 nM

Request - read-out IC50 | tested on Tyrosine-protein kinase JAK3 (Homo sapiens) | compound "Nc1nccc(-c2nc3cnc(-n4cnc5ccc(Cl)cc54)nc3n2C2CCOCC2)n1"
< 100 nM

Request - read-out IC50 | tested on Tyrosine-protein kinase JAK3 (Homo sapiens) | compound "C=CC(=O)N1CC[C@@H](Nc2nc(Nc3cnn(CCN4CCOCC4)c3)nc3ccsc23)C1"
10 to 100 nM

----------
Kindly find below pIC50 information for Tyrosine-protein kinase JAK3 (Homo sapiens, UniProt P52333) taken from the literature.
pIC50: −log10 of the molar value.

structure.string	pIC50
CCC(CC)n1cc(-c2nc(-c3cnn(C4CCN(C(C)=O)CC4)c3)cn3nccc23)cn1	5.00 to 6.00
CC#CC(=O)N1CCC[C@@H](Nc2n[nH]c3nccc(Oc4ccc(C(=O)Nc5cc(C(F)(F)F)ccn5)cc4)c23)C1	< 5.00

Now consider a different compound.
Request - read-out pIC50 | tested on Tyrosine-protein kinase JAK3 (Homo sapiens, UniProt P52333) | compound "N#CCNC(=O)c1nc(-n2cnc3ccc(F)cc32)nc2c1[nH]c(=O)n2C1CCOCC1"
> 7.00

----------
Kindly find below IC50 information for Tyrosine-protein kinase JAK3 (Homo sapiens, UniProt P52333) taken from the literature.

Example entries and their recorded answers appear below.
compound	target.desc	experimental.result
C=C(C#N)C(O)c1cccc(Nc2cc(Nc3ccc(Oc4ccccc4)cc3)ncn2)c1 (stereo not drawn)	Tyrosine-protein kinase JAK3 (Homo sapiens, UniProt P52333)	≥ 10 µM
CN(c1ncnc2[nH]ccc12)N1CCC[C@H](C(=O)NCC#N)C1 (single isomer, unassigned)	Tyrosine-protein kinase JAK3 (Homo sapiens, UniProt P52333)	> 1 µM
CCC(C)c1nc(-n2cnc3ccc(F)cc32)nc2c1[nH]c(=O)n2[C@@H]1CCOc2c(F)cccc21 (stereo partly drawn)	Tyrosine-protein kinase JAK3 (Homo sapiens, UniProt P52333)	> 1 µM

Request - read-out IC50 | tested on Tyrosine-protein kinase JAK3 (Homo sapiens, UniProt P52333) | compound "CCC(=O)N1CCC[C@@H](Nc2n[nH]c3nccc(Oc4ccc(-c5nc6ccccc6[nH]5)cc4)c23)C1"
> 10 µM

Request - read-out IC50 | tested on Tyrosine-protein kinase JAK3 (Homo sapiens, UniProt P52333) | compound "CC(C)Nc1c(C(N)=O)cnn2cc(-c3ccc(C#N)cc3)cc12"
0.0151 µM

Request - read-out IC50 | tested on Tyrosine-protein kinase JAK3 (Homo sapiens, UniProt P52333) | compound "Cn1cc(-c2cc3nccn3c(-c3cnn(C4(CCF)CN(S(=O)(=O)C(F)(F)F)C4)c3)n2)cn1"
0.1 to 1 µM

Request - read-out IC50 | tested on Tyrosine-protein kinase JAK3 (Homo sapiens, UniProt P52333) | compound "CC(C)(C)S(=O)(=O)Nc1cccc(-n2ccc3cnc(Nc4ccc(C5CCNCC5)cc4)nc32)c1"
0.1 µM

Request - read-out IC50 | tested on Tyrosine-protein kinase JAK3 (Homo sapiens, UniProt P52333) | compound "CC(C)C[C@H](C)n1cc(-c2nc(-c3cnn(C(CO)CO)c3)cn3nccc23)cn1"
1 to 10 µM

----------
Kindly find below pIC50 information for Tyrosine-protein kinase JAK3 (Homo sapiens) taken from the literature.
pIC50: −log10 of the molar value.

Example entries and their recorded answers appear below.
compound	experimental.result
O=C(c1cccc(O)c1)c1c[nH]c2nccc(-c3cc(F)cc(F)c3)c12	≥ 5.00
CS(=O)(=O)N1CC(CNC(=O)c2noc3c2CN(c2ncnc4[nH]ccc24)CC3)C1	6.30 to 7.00
Cn1cc(-c2cc3nccn3c(-c3cnn(C(CC#N)c4cncc(Br)c4)c3)n2)cn1 (stereo not drawn)	6.00 to 7.00

Request - read-out pIC50 | tested on Tyrosine-protein kinase JAK3 (Homo sapiens) | compound "CCC(CC)n1cc(-c2nc(-c3cnn(C[C@@H](O)CN4CCCC4)c3)cn3nccc23)cn1"
5.00 to 6.00

Request - read-out pIC50 | tested on Tyrosine-protein kinase JAK3 (Homo sapiens) | compound "CC(=O)Nc1cc2ccc1C(=O)NCCCCCNc1nc(ncc1C)Nc1cc-2cnc1F"
6.00 to 7.00

Request - read-out pIC50 | tested on Tyrosine-protein kinase JAK3 (Homo sapiens) | compound "CS(=O)(=O)Nc1ccnc(-c2cnc3[nH]ccc3c2N[C@@H]2CCCN(C(=O)CC#N)C2)c1"
6.00 to 7.00

----------
pIC50: −log10 of the molar value.
Kindly find below pIC50 information for Tyrosine-protein kinase JAK3 (Homo sapiens, UniProt P52333) taken from the literature.

compound	target.desc	experimental.result
COCCCO[C@H]1CNc2cc(Nc3ncc(C(N)=O)c(NC4CC4)n3)ccc2OC1	Tyrosine-protein kinase JAK3 (Homo sapiens, UniProt P52333)	7.00 to 8.00
C=CC(=O)N1CCCC(Nc2cc(Nc3ccc(F)c(Cl)c3)ncn2)C1 (stereo not shown)	Tyrosine-protein kinase JAK3 (Homo sapiens, UniProt P52333)	5.00 to 6.00
NC(=O)c1cnc2[nH]ccc2c1NN1CCC[C@H](C(=O)NCC(F)(F)F)C1	Tyrosine-protein kinase JAK3 (Homo sapiens, UniProt P52333)	8.57

Now consider a different compound.
Request - read-out pIC50 | tested on Tyrosine-protein kinase JAK3 (Homo sapiens, UniProt P52333) | compound "CCC(CC)n1cc(-c2nc(-c3cnn(CCS(N)(=O)=O)c3)cn3nccc23)cn1"
5.00 to 6.00

----------
pIC50: −log10 of the molar value.
Kindly find below pIC50 information for Tyrosine-protein kinase JAK3 (Homo sapiens) taken from the literature.

Example entries and their recorded answers appear below.
compound	recorded.metric	experimental.result
CCC(CC)n1cc(-c2nc(-c3cnn(C[C@H](O)COC)c3)cn3nccc23)cn1	pIC50	5.00 to 6.00
Cn1c(=O)n(C2CCOCC2)c2nc(-n3cnc4ccc(Cl)cc43)nc(NCC(F)(F)CCl)c21	pIC50	> 7.00
CCC(CC)n1cc(-c2nc(-c3cnn(CCCO)c3)cn3nccc23)cn1	pIC50	5.00 to 6.00
NC(=O)c1cnc(Nc2ccc3c(c2)NC[C@H](O)CO3)nc1NCC1CCCCC1	pIC50	> 8.00
Cc1nnc(-c2cc3nccn3c(-c3cnn(C(CC#N)C4CC4)c3)n2)s1 (stereo not shown)	pIC50	< 6.00

Request - read-out pIC50 | tested on Tyrosine-protein kinase JAK3 (Homo sapiens) | compound COC1CNc2cc(Nc3ncc(C(N)=O)c(NC4CC4)n3)ccc2OC1 (stereo not shown)
7.00 to 8.00

Request - read-out pIC50 | tested on Tyrosine-protein kinase JAK3 (Homo sapiens) | compound "C=CC(=O)Nc1cccc(Nc2cc(Nc3ccc(OCc4ccccn4)c(Cl)c3)ncn2)c1"
7.00 to 8.00

Request - read-out pIC50 | tested on Tyrosine-protein kinase JAK3 (Homo sapiens) | compound "C=CC(=O)N1CC(CNc2nc(Nc3cnoc3)nc3ccsc23)C1"
7.00 to 8.00

Request - read-out pIC50 | tested on Tyrosine-protein kinase JAK3 (Homo sapiens) | compound "C#Cc1ccc(C(=O)N2CC3(CC(N(C)c4ncnc5[nH]ccc45)C3)C2)cc1"
≤ 5.00

Request - read-out pIC50 | tested on Tyrosine-protein kinase JAK3 (Homo sapiens) | compound "CCOC(=O)c1cnc2[nH]ccc2c1N[C@H]1C[C@@H](NS(=O)(=O)c2cc(C#N)ccn2)C1"
7.00 to 8.00

----------
pIC50: −log10 of the molar value.
Kindly find below pIC50 information for Tyrosine-protein kinase JAK3 (Homo sapiens) taken from the literature.

compound	target.desc	pIC50
CN(c1ncnc2[nH]ccc12)C1CCC2(CC1)CCN(C(=O)C1CC1)CC2	Tyrosine-protein kinase JAK3 (Homo sapiens)	5.00 to 6.00
C[C@H](O)CS(=O)(=O)N[C@H]1C[C@@H](N(C)c2ncnc3[nH]ccc23)C1 (single isomer, unassigned)	Tyrosine-protein kinase JAK3 (Homo sapiens)	< 5.00
CN(c1ncnc2[nH]ccc12)N1CCC(C(=O)NCC#N)CC1	Tyrosine-protein kinase JAK3 (Homo sapiens)	7.00 to 8.00
CS(=O)(=O)c1cnc(-c2cnc3[nH]ccc3c2N[C@@H]2CCCN(C(=O)CC#N)C2)o1	Tyrosine-protein kinase JAK3 (Homo sapiens)	7.00 to 8.00
COC(=O)c1cnc2[nH]ccc2c1N[C@@H]1CCC[C@H](CCC#N)C1 (racemic)	Tyrosine-protein kinase JAK3 (Homo sapiens)	≥ 8.00

Which pIC50 value belongs to "CC(C)(O)Cn1nnc2cc(Nc3ncc(Cl)c(NC4CCN(c5ccc(C#N)cn5)CC4)n3)ccc21" ?
8.30

Which pIC50 value belongs to "C=CC(=O)N1CCC[C@@H](Nc2n[nH]c3nccc(Oc4ccc(C(=O)Nc5ncc(CC)s5)cc4)c23)C1" ?
> 7.00

Which pIC50 value belongs to "Cc1cnc(NC(=O)c2ccc(Oc3ccnc4[nH]nc(N[C@@H]5CCCN(C(=O)/C=C/CN(C)C6CC6)C5)c34)cc2)s1" ?
5.00 to 6.00

Which pIC50 value belongs to "C=CC(=O)N1CC(CNc2nc(Nc3cnn(C(C)=O)c3)nc3ccsc23)C1" ?
7.00 to 8.00

Which pIC50 value belongs to "O=C(Nc1cc(C(F)(F)F)ccn1)c1ccc(Oc2ccnc3[nH]nc(N[C@@H]4CCCN(C(=O)C5CC5)C4)c23)cc1" ?
< 5.00

Which pIC50 value belongs to "C=CC(=O)Nc1cccc(-c2cnc3[nH]cc(NS(=O)(=O)CCC)c3c2)c1" ?
< 7.00
